Sourced from ChEMBL document CHEMBL3612020

METHOD DESCRIPTION: Terminal half life in CD1 mouse at 10 mg/kg, iv
Assay type: ADME, organism-based
REPORTED CONDITIONS: in vivo, read-out: beta t1/2 (converted)
MEASURED ATTRIBUTE: half-life (min)
Record the value in min, omitting the unit from your answer.

Task: For O=c1[nH]nc(CCc2cc(F)cc(F)c2)cc1O , what is its reported half-life?
Output: 12

====

TESTED SYSTEM: D-amino-acid oxidase (Homo sapiens)
Sequence (P14920 whole entry): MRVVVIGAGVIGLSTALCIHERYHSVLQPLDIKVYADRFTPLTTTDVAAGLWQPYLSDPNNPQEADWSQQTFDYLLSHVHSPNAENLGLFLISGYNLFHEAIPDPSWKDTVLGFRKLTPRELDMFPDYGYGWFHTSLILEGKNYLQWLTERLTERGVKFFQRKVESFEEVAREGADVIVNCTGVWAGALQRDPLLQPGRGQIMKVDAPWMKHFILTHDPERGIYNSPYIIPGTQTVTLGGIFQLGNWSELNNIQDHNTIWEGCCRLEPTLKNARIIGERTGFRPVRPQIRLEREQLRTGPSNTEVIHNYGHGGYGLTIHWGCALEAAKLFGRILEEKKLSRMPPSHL
METHOD DESCRIPTION: Inhibition of DAAO (unknown origin)
MEASURED ATTRIBUTE: IC50 (µM)
Record the value in µM, omitting the unit from your answer.

Task: For CO/N=C(\C(=O)N[C@@H]1C(=O)N2C(C(=O)O)=C(CSc3nc(=O)c(=O)[nH]n3C)CS[C@H]12)c1csc(N)n1 , what is its reported IC50?
Output: 10
